- system: T1, soluble heterodimeric hCD3ε/δ.mFc protein (human)
- T1 construct: also called soluble human CD3; soluble heterodimeric CD3 protein
- T1 chain 1: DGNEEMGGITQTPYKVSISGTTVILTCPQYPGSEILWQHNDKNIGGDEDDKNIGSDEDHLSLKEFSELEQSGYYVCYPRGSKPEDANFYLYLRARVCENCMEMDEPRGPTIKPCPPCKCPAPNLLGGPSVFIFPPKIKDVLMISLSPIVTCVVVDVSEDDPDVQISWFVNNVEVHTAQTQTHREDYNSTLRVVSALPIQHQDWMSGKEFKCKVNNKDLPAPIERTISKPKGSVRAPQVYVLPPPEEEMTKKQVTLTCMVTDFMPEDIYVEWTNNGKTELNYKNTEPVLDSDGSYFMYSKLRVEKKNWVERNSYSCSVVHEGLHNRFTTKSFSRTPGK
- T1 chain 2: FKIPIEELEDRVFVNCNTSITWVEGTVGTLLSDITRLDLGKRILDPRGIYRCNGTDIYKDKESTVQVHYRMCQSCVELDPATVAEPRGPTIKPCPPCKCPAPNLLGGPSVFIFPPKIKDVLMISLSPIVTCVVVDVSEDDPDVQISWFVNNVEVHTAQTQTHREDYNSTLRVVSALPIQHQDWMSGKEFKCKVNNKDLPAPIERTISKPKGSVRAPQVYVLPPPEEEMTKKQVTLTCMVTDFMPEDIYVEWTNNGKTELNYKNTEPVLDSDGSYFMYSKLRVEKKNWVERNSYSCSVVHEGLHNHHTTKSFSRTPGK
- protocol description: SPR MASS-1, 37 C, antigen-capture (hCD3ε/δ.mFc captured), antibody injected
Hi there, I'd appreciate the recorded pKd for every entry that follows.
Give bare numbers, as −log10 of the molar value.

1. BSPSMA/CD3-1900 (bispecific antibody, IgG4, V domains shown, modified (chimeric) IgG4 Fc domain; also called PSMA-VH-11810 x CD3-VH-G19) VH 1: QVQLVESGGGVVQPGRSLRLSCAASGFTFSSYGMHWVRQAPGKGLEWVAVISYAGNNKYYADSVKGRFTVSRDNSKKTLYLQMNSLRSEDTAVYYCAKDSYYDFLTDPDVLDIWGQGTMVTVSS VH 2: EVQLVESGGGLVQPGRSLRLSCAASGFTFDDYSMHWVRQAPGKGLEWVSGISWNSGSIGYADSVKGRFTISRDNAKNSLYLQMNSLRAEDTALYYCAKDGSGYGKFYHYGMDVWGQGTTVTVSS VL: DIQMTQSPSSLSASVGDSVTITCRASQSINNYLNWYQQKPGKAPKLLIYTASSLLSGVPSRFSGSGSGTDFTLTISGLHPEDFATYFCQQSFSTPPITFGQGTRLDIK    6.94

// moving on: another record for pKd
Record BSPSMA/CD3-005 (bispecific antibody, IgG4, V domains shown, modified (chimeric) IgG4 Fc domain; also called PSMA-VH-11810 x CD3-VH-G20) VH 1: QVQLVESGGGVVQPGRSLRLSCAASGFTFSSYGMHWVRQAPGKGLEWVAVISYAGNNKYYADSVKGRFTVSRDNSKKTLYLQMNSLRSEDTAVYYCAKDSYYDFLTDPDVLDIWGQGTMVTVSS VH 2: EVQLVESGGGLVQPGRSLRLSCAASGFTFDDYSMHWVRQAPGKGLEWVSGISWNSGSIGYADSVKGRFTISRDNAKNSLYLQMNSLRAEDTALYYCAKYGSGYGKFYYYGMDVWGQGTTVTVSS VL: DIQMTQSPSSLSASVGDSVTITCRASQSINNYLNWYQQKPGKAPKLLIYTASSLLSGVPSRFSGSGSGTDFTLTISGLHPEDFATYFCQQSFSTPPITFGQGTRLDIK , field pKd: 6.48
